# EXPERIMENTAL DETAILS: Cytotoxicity against mouse AML12 cells assessed as reduction in cell viability incubated for 48 hrs by MTT assay
# Type: toxicity, cell-based
PROPERTY: CC50 at 48 h

SMILES	OBSERVED MEASUREMENT
CC[C@H]1OC(=O)[C@@](C)(F)C(=O)[C@H](C)[C@@H](O[C@@H]2O[C@H](C)C[C@H](N(C)C)[C@H]2O)[C@](C)(OC)C[C@@H](C)C(=O)[C@H](C)[C@H]2N(CCCOC(=O)Nc3cccc(F)c3)C(=O)O[C@]12C	33.7 µM
CC[C@H]1OC(=O)[C@@](C)(F)C(=O)[C@H](C)[C@@H](O[C@@H]2O[C@H](C)C[C@H](N(C)C)[C@H]2O)[C@](C)(OC)C[C@@H](C)C(=O)[C@H](C)[C@H]2N(CCCOC(=O)Nc3c(F)cccc3F)C(=O)O[C@]12C	> 100 µM
CC[C@H]1OC(=O)[C@@](C)(F)C(=O)[C@H](C)[C@@H](O[C@@H]2O[C@H](C)C[C@H](N(C)C)[C@H]2O)[C@](C)(OC)C[C@@H](C)C(=O)[C@H](C)[C@H]2N(CCCOC(=O)Nc3ccc4sccc4c3)C(=O)O[C@]12C	11.6 µM
CC[C@H]1OC(=O)[C@@](C)(F)C(=O)[C@H](C)[C@@H](O[C@@H]2O[C@H](C)C[C@H](N(C)C)[C@H]2O)[C@](C)(OC)C[C@@H](C)C(=O)[C@H](C)[C@H]2N(CCCOC(=O)Nc3cccnc3)C(=O)O[C@]12C	> 100 µM
CC[C@H]1OC(=O)[C@@](C)(F)C(=O)[C@H](C)[C@@H](O[C@@H]2O[C@H](C)C[C@H](N(C)C)[C@H]2O)[C@](C)(OC)C[C@@H](C)C(=O)[C@H](C)[C@H]2N(CCCOC(=O)Nc3ccc(SC)cc3)C(=O)O[C@]12C	76.1 µM
CC[C@H]1OC(=O)[C@@](C)(F)C(=O)[C@H](C)[C@@H](O[C@@H]2O[C@H](C)C[C@H](N(C)C)[C@H]2O)[C@](C)(OC)C[C@@H](C)C(=O)[C@H](C)[C@H]2N(CCCOC(=O)Nc3cccc4ccccc34)C(=O)O[C@]12C	29.4 µM
CC[C@H]1OC(=O)[C@@](C)(F)C(=O)[C@H](C)[C@@H](O[C@@H]2O[C@H](C)C[C@H](N(C)C)[C@H]2O)[C@](C)(OC)C[C@@H](C)C(=O)[C@H](C)[C@H]2N(CCCOC(=O)Nc3ccc4ccccc4c3)C(=O)O[C@]12C	18.5 µM
CC[C@H]1OC(=O)[C@@](C)(F)C(=O)[C@H](C)[C@@H](O[C@@H]2O[C@H](C)C[C@H](N(C)C)[C@H]2O)[C@](C)(OC)C[C@@H](C)C(=O)[C@H](C)[C@H]2N(CCCOC(=O)Nc3ccc(Cl)cc3)C(=O)O[C@]12C	26 µM
